Test system: Zea mays (ZEAMX)
Assay type: in vivo
Settings: pre-emergence, 80 g/ha, crop plant compatibility, in comparison to untreated controls
quantity: Pre-emergence action against ZEAMX in % (%)

compound	quantity	measuredResult
O=C(O)C1CCN(C(=O)COc2nn(-c3ccccn3)c(-c3ccc(F)nc3)c2Br)CC1	Pre-emergence action against ZEAMX in %	0
CCOC(=O)COc1nn(-c2cccc(C)n2)c(-c2ccc(F)nc2)c1Br	Pre-emergence action against ZEAMX in %	20
CCOC(=O)COc1nn(-c2ncccc2C(F)(F)F)c(-c2cncc(F)c2)c1I	Pre-emergence action against ZEAMX in %	10
O=C(O)C1CCN(C(=O)COc2nn(-c3ccccn3)c(-c3cncc(F)c3)c2Br)C1 (racemic)	Pre-emergence action against ZEAMX in %	10
CN(C)S(=O)(=O)NC(=O)COc1nn(-c2ncccc2F)c(-c2ccc(F)nc2)c1Br	Pre-emergence action against ZEAMX in %	0
CCOC(=O)COc1nn(-c2ccc(Br)c(C)n2)c(-c2cncc(F)c2)c1Br	Pre-emergence action against ZEAMX in %	20
COC(=O)CCOC(=O)COc1nn(-c2ccccn2)c(-c2ccc(F)nc2)c1Cl	Pre-emergence action against ZEAMX in %	20
COC(=O)[C@H](C)NC(=O)COc1nn(-c2ccnc(F)c2)c(-c2ccc(F)nc2)c1Br	Pre-emergence action against ZEAMX in %	0
CCOC(=O)COc1nn(-c2ncccc2OC)c(-c2ccc(F)nc2)c1I	Pre-emergence action against ZEAMX in %	0
CCOC(=O)COc1nn(-c2nc(F)ccc2F)c(-c2ccc(F)nc2)c1Br	Pre-emergence action against ZEAMX in %	20
O=C(CSc1nn(-c2ccccn2)c(-c2cncc(F)c2)c1Br)NS(=O)(=O)c1ccccc1	Pre-emergence action against ZEAMX in %	0
COC(=O)CCOC(=O)[C@@H](C)Oc1nn(-c2ccccn2)c(-c2ccc(Cl)nc2)c1Cl	Pre-emergence action against ZEAMX in %	0
CCOC(=O)COc1nn(-c2ccccn2)c(-c2ccc(F)nc2)c1F	Pre-emergence action against ZEAMX in %	0
CSCCOC(=O)COc1nn(-c2ccccn2)c(-c2ccc(F)nc2)c1Br	Pre-emergence action against ZEAMX in %	0
O=C(O)COc1nn(-c2ccnc(Cl)c2)c(-c2ccc(F)nc2)c1Br	Pre-emergence action against ZEAMX in %	0
C[C@@H](Oc1nn(-c2ncccc2Cl)c(-c2ccc(F)nc2)c1Br)C(=O)O	Pre-emergence action against ZEAMX in %	10
COC(=O)COc1nn(-c2ncccc2Cl)c(-c2ccc(F)nc2)c1Br	Pre-emergence action against ZEAMX in %	10

----------
Quick reference: Pre-emergence action against MATIN in % of the listed items.
Tested on: Matricaria inodora (MATIN)
Assay: Pre-emergence herbicidal action against MATIN
Format: in vivo
Settings: dosage 320 g/ha

smiles	testedTarget	Pre-emergence action against MATIN in %
COC(=O)[C@@H](C)Oc1nn(-c2nc(F)ccc2F)c(-c2cncc(F)c2)c1C1CC1	Matricaria inodora (MATIN)	90%
COC(=O)COc1nn(-c2nc(F)ccc2F)c(-c2cncc(F)c2)c1C1CC1	Matricaria inodora (MATIN)	100%
C[C@@H](Oc1nn(-c2ncccc2F)c(-c2ccc(F)nc2)c1Br)C(=O)O	Matricaria inodora (MATIN)	100%
CSCCOC(=O)COc1nn(-c2ccccn2)c(-c2ccc(F)nc2)c1Br	Matricaria inodora (MATIN)	80%
